System: carrageenin-induced paw edema
Test: Antiinflammatory activity by the carrageenin-induced hind paw edema
Format: in vivo, mice (Std:ddY, male)
Details: mouse, 30 mg/kg p.o., 3 hour, mean ± standard error, n = 6
Procedure: Measurement of Antiinflammatory Activity by the Carrageenin-Induced Hind Paw Edema Std:ddY Strain male mice (20-25 g) were fasted for one day before the experiment, and were used. After test compounds shown in Table 1 was formed to a salt with tartaric acid, this salt was dissolved in sterilized and distilled water at the rate of 30 mg/10 ml to give the test compound solution. […] Three hours and five hours after carrageenin injection, the […] of the paw was measured with a dial gauge calliper. […]
Strictly below 50% in Swelling rate: T. Otherwise: F.

Record excerpt, results attached:
stdin: Consider the compound CCCN1CC2(COC)C(O)CC(OC)C34C5CC6(O)C(OC)C(OC(C)=O)C(O)(C5C6OC(=O)c5ccc(Cl)cc5)C(C(OC)C23)C14 (stereo not shown) . Is its Swelling rate strictly less than 50%?
stdout: T

stdin: Consider the compound CCN1CC2(COC)C(O)CC(OC)C34C5CC6(O)C(OC)C(O)C(O)(C5C6OC(=O)c5ccc(Cl)cc5)C(C(OC)C23)C14 (stereo not shown) [14-O-p-chlorobenzoylaconine, reference compound] . Is its Swelling rate strictly less than 50%?
stdout: F

stdin: Consider the compound CCN1CC2(COC)C(O)CC(OC)C34C5CC6(O)C(OC)C(OC(C)=O)C(O)(C5C6OC(=O)c5ccc(Cl)cc5)C(C(OC)C23)C14 (stereo not shown) . Is its Swelling rate strictly less than 50%?
stdout: T

stdin: Consider the compound COCC12CN(C)C3C4C(OC)C1C3(C(OC)CC2OC(C)=O)C1CC2(O)C(OC)C(OC(C)=O)C4(O)C1C2OC(=O)c1ccc(Cl)cc1 (stereo not shown) . Is its Swelling rate strictly less than 50%?
stdout: T

--- query ---
stdin: Consider the compound COCC12CCC(OC)C34C5CC6(O)C(OC)C(OC(C)=O)C(O)(C5C6OC(=O)c5ccc(Cl)cc5)C(C(OC)C13)C4N(C)C2 (stereo not shown) . Is its Swelling rate strictly less than 50%?
stdout: T
